experimental.target: HLA-A*02:17
experimental.protocol: IEDB peptide-MHC binding, purified MHC/competitive/radioactivity; filed as Kd, often an IC50 or EC50 that approximates it; bounds were set here for any values at or beyond the usual limits of such assays
measurement.context: source organism: Dengue virus 4 Philippines/H241/1956
Please go through the items and note down their Kd.
Kindly answer with a numeric value in nM, unit omitted.

Prompt line: Record request: Kd value, item VLWEGGHDL
Response line: 453

Prompt line: Record request: Kd value, item TLIASLVMLL
Response line: 57.9

* * *

experimental.target: HLA-B*35:01
experimental.protocol: IEDB peptide-MHC binding, purified MHC/direct/fluorescence; filed as Kd, often an IC50 or EC50 that approximates it; bounds were set here for any values at or beyond the usual limits of such assays
measurement.context: source organism: Influenza A virus (A/Quail/Shanghai/8/96(H9N2))
measured.property: pKd
Keep in mind that pKd stands for -log10 of concentration in molar terms.

Prompt line: Record request: pKd value, item LVGGREWSY
Response line: 6.07

* * *

experimental.target: HLA-A*68:01
experimental.protocol: IEDB peptide-MHC binding, purified MHC/competitive/radioactivity; filed as Kd, often an IC50 or EC50 that approximates it; bounds were set here for any values at or beyond the usual limits of such assays
measurement.context: source organism: Mammarenavirus brazilense
measured.property: Kd

Prompt line: Record request: Kd value, item KCSDHYICLK
Response line: ≥ 70.1 µM

* * *

experimental.target: HLA-A*24:03
experimental.protocol: IEDB peptide-MHC binding, purified MHC/competitive/fluorescence; filed as Kd, often an IC50 or EC50 that approximates it; bounds were set here for any values at or beyond the usual limits of such assays
measurement.context: source organism: Mycobacterium tuberculosis variant bovis BCG str. Pasteur 1173P2
measured.property: Kd

Prompt line: Record request: Kd value, item RLAPEPVYT
Response line: ≥ 20 µM

* * *

experimental.target: HLA-A*68:01
experimental.protocol: IEDB peptide-MHC binding, purified MHC/competitive/radioactivity; filed as Kd, often an IC50 or EC50 that approximates it; bounds were set here for any values at or beyond the usual limits of such assays
measurement.context: source organism: Dengue virus 4 Philippines/H241/1956
measured.property: pKd
Keep in mind that pKd stands for -log10 of concentration in molar terms.

Prompt line: Record request: pKd value, item IAVSTANIFR
Response line: 8.02

* * *

Please go through the items and note down their pKd.
experimental.target: HLA-A*02:06
experimental.protocol: IEDB peptide-MHC binding, purified MHC/competitive/radioactivity; filed as Kd, often an IC50 or EC50 that approximates it; bounds were set here for any values at or beyond the usual limits of such assays
measurement.context: source organism: Trypanosoma cruzi
Keep in mind that pKd stands for -log10 of concentration in molar terms.

Prompt line: Write down the reported pKd of FLSHNFTLV , test system: HLA-A*02:06.
Response line: 9.35

Prompt line: Write down the reported pKd of LLGLWGFAAL , test system: HLA-A*02:06.
Response line: 6.33

Prompt line: Write down the reported pKd of FLHKRFTLV , test system: HLA-A*02:06.
Response line: 8.86

* * *

experimental.target: HLA-B*15:02
experimental.protocol: IEDB peptide-MHC binding, purified MHC/competitive/fluorescence; filed as Kd, often an IC50 or EC50 that approximates it; bounds were set here for any values at or beyond the usual limits of such assays
measurement.context: source organism: Giardia lamblia ATCC 50803
measured.property: Kd (µM)
Kindly answer with a numeric value in µM, unit omitted.

Prompt line: Record request: Kd value, item NTFAAWLPM
Response line: 0.193
